Test system: TYPE II Collagen-Induced Arthritis in DBA/1J Mouse
Assay Summary: Type II collagen-induced arthritis in DBA/1J mouse
Assay type: in vivo
Condition Summary: 840 h, 3 mg/kg oral, 2 weeks from booster, average arthritis score at 35 days after primary immunization, P <0.05, read-out: suppressing rate (%) of arthritis score
Readout Kind: inhibition in vivo at 3 mg/kg (%)
Answer with a number only, understood to be in %.

Consider the reported inhibition in vivo at 3 mg/kg for these compounds:
{"Structure Smiles": "COC(=O)C[C@@H]1N=C(c2ccc(-c3ccc(OC)cc3)cc2)c2c(sc(CO)c2C)-n2c(C)nnc21", "Numeric Value": 53.6}
{"Structure Smiles": "COC(=O)C[C@@H]1N=C(c2ccc(NCc3ccccc3)cc2)c2c(sc(C)c2C)-n2c(C)nnc21", "Numeric Value": 61.4}

Request: Kindly state the measured inhibition in vivo at 3 mg/kg obtained for COC(=O)C[C@@H]1N=C(c2ccc(Nc3ccccc3)cc2)c2c(sc(C)c2C)-n2c(C)nnc21 with TYPE II Collagen-Induced Arthritis in DBA/1J Mouse.
Result: 53.1

Request: Lab request: please report inhibition in vivo at 3 mg/kg under test system TYPE II Collagen-Induced Arthritis in DBA/1J Mouse for COC(=O)C[C@@H]1N=C(c2ccc(NC(=O)CCc3ccccc3)cc2)c2c(sc(C)c2C)-n2c(C)nnc21
Result: 85.2

Request: Reported inhibition in vivo at 3 mg/kg for TYPE II Collagen-Induced Arthritis in DBA/1J Mouse, given COC(=O)C[C@@H]1N=C(c2ccc(-c3cccc(C#N)c3)cc2)c2c(sc(C)c2C)-n2c(C)nnc21 ?
Result: 50

Request: Lookup: inhibition in vivo at 3 mg/kg / TYPE II Collagen-Induced Arthritis in DBA/1J Mouse / CCOC(=O)C[C@@H]1N=C(c2ccc(NCc3ccc(F)cc3)cc2)c2c(sc(C)c2C)-n2c(C)nnc21
Result: 57.4
